assayed-system: full-length MALT1 protein His-MALT1(1-824) (Homo sapiens, UniProt Q9UDY8)
Construct: full-length MALT1 protein His-MALT1(1-824); His (N); made in house; host or cells: baculovirus-infected insect cells
method-summary: MALT1 protease assay, Assay 1 (2 nM MALT1, Ac-LRSR-AMC substrate)
Type: biochemical
experimental-conditions: 2 nM MALT1, 50 μM Ac-LRSR-AMC, 2 h pre-incubation, 8 hr incubation at RT
The compounds listed here are annotated with their IC50.

Cc1cc2ncc3c(n2n1)C(C)(C)C[C@@H]3C(=O)Nc1cnc(-n2nccn2)c(Cl)c1 (single isomer, unassigned) : < 10 nM

stdin: Fill in the blank: the reported IC50 of CCc1cc2ncc3c(n2n1)C(C)(C)CC3C(=O)Nc1cnc(-n2nccn2)c(Cl)c1 (single isomer, unassigned) is ____.
stdout: 10 to 100 nM

stdin: Given CC1(C)C[C@@H](C(=O)Nc2cnc(-n3nccn3)c(Cl)c2)c2cnc3cc(F)nn3c21 (single isomer, unassigned) , state its recorded IC50.
stdout: ≥ 1000 nM

stdin: # lookup: IC50 of CC1(C)C[C@@H](C(=O)Nc2cnc(-n3cccn3)c(Cl)c2)c2cnc3cc(Cl)nn3c21 (single isomer, unassigned)
stdout: ≥ 1000 nM

stdin: Fill blank: measured IC50 of the compound CC1(C)CC(C(=O)Nc2cnc(-n3nccn3)c(Cl)c2)c2cnc3cc(F)nn3c21 (single isomer, unassigned) is ____.
stdout: < 10 nM

stdin: What measured IC50 goes with CC(C)(O)c1cnn(-c2ncc(NC(=O)C3CC(C)(C)c4c3cnc3cc(Cl)nn43)cc2Cl)n1 (single isomer, unassigned) [Example 22] ?
stdout: 100 to 1000 nM

* * *

assayed-system: full-length MALT1 protein His-MALT1(1-824) (Homo sapiens, UniProt Q9UDY8)
Construct: full-length MALT1 protein His-MALT1(1-824); His (N); made in house; host or cells: baculovirus-infected insect cells
method-summary: MALT1 protease assay, Assay 2 (1 nM MALT1, Ac-LRSR-AMC substrate)
Format: biochemical
experimental-conditions: 1 nM MALT1, 50 μM Ac-LRSR-AMC, 2 h pre-incubation, 8 hr incubation at RT
property-name: IC50

C[C@@H](O)c1cnn(-c2ncc(NC(=O)[C@H]3CC(C)(C)c4c3cnc3cc(Cl)nn43)cc2Cl)n1 (single isomer, unassigned) : < 10 nM
C[C@@H](O)c1cnn(-c2ncc(NC(=O)[C@H]3CC4(CCC4)c4c3cnc3cc(Cl)nn43)cc2Cl)n1 (single isomer, unassigned) : < 10 nM
CC1(C)CC(C(=O)Nc2cnc(-n3nccn3)c(Cl)c2)c2cnc3c(F)cnn3c21 (single isomer, unassigned) [Example 100] : 100 to 1000 nM
CC(C)(O)c1ncc(NC(=O)[C@H]2CC3(CCC3)c3c2cnc2cc(F)nn32)cc1Cl (single isomer, unassigned) : ≥ 1000 nM

stdin: State the recorded IC50 for this entry: COc1cnc(C(F)(F)F)cc1NC(=O)C1CC(C)(C)c2c1cnc1cc(F)nn21 (single isomer, unassigned) [Example 93]
stdout: ≥ 1000 nM

stdin: Look at this compound and give its reported IC50. CC1(C)C[C@@H](C(=O)Nc2ccnc(C(F)(F)F)c2)c2cnc3cc(C(F)F)nn3c21 (single isomer, unassigned)
stdout: ≥ 1000 nM

stdin: I have this compound here, CCO[C@@]1(C(F)(F)F)C[C@@H](C(=O)Nc2cnc(-n3nccn3)c(Cl)c2)c2cnc3cc(Cl)nn3c21 (single isomer, unassigned) , and I need its recorded IC50.
stdout: 100 to 1000 nM

stdin: Give the measured IC50 of CC1(C)CC(C(=O)Nc2cnc(OC(F)F)c(C#N)n2)c2cnc3cc(F)nn3c21 (single isomer, unassigned) [Example 87] .
stdout: ≥ 1000 nM

* * *

assayed-system: full-length MALT1 protein His-MALT1(1-824) (Homo sapiens)
Construct: full-length MALT1 protein His-MALT1(1-824); His (N); made in house; host or cells: baculovirus-infected insect cells
method-summary: MALT1 protease assay, Assay 2 (1 nM MALT1, Ac-LRSR-AMC substrate)
Format: biochemical
experimental-conditions: 1 nM MALT1, 50 μM Ac-LRSR-AMC, 2 h pre-incubation, 8 hr incubation at RT
Entries annotated with measured IC50

stdin: Name the reported IC50 value associated with the molecule Cc1cc2cc(F)c3c(n2n1)C(C)(C)CC3C(=O)Nc1cnc(-n2nccn2)c(Cl)c1 (single isomer, unassigned)
stdout: 10 to 100 nM

stdin: Quick one: IC50 for CNC(=O)c1ncc(NC(=O)C2CC(C)(C)c3c2cnc2cc(Cl)nn32)cc1C(F)(F)F (single isomer, unassigned) ?
stdout: 10 to 100 nM

stdin: Requested read-out: IC50. Entry: CC1(C)C[C@@H](C(=O)Nc2cnc(OC(F)F)c(C#N)c2)c2cnc3cc(F)nn3c21 (single isomer, unassigned)
stdout: 100 to 1000 nM

stdin: # IC50 lookup, item COc1cnc(C(F)(F)F)cc1NC(=O)C1CC(C)(C)c2c1cnc1cc(F)nn21 (single isomer, unassigned) [Example 92]
stdout: 100 to 1000 nM

stdin: Given the entry C[C@H](O)c1cnn(-c2ncc(NC(=O)[C@@H]3CC(C)(C)c4c3cnc3cc(Cl)nn43)cc2Cl)n1 (single isomer, unassigned) , report its measured IC50.
stdout: ≥ 1000 nM

stdin: # IC50 lookup, item CC1(C)CC(C(=O)Nc2cnc(OC3CC3)c(Cl)c2)c2cnc3cc(Cl)nn3c21 (single isomer, unassigned) [Example 74]
stdout: ≥ 1000 nM

* * *

assayed-system: full-length MALT1 protein His-MALT1(1-824) (Homo sapiens, UniProt Q9UDY8)
Construct: full-length MALT1 protein His-MALT1(1-824); His (N); made in house; host or cells: baculovirus-infected insect cells
Sequence (Q9UDY8 1-824): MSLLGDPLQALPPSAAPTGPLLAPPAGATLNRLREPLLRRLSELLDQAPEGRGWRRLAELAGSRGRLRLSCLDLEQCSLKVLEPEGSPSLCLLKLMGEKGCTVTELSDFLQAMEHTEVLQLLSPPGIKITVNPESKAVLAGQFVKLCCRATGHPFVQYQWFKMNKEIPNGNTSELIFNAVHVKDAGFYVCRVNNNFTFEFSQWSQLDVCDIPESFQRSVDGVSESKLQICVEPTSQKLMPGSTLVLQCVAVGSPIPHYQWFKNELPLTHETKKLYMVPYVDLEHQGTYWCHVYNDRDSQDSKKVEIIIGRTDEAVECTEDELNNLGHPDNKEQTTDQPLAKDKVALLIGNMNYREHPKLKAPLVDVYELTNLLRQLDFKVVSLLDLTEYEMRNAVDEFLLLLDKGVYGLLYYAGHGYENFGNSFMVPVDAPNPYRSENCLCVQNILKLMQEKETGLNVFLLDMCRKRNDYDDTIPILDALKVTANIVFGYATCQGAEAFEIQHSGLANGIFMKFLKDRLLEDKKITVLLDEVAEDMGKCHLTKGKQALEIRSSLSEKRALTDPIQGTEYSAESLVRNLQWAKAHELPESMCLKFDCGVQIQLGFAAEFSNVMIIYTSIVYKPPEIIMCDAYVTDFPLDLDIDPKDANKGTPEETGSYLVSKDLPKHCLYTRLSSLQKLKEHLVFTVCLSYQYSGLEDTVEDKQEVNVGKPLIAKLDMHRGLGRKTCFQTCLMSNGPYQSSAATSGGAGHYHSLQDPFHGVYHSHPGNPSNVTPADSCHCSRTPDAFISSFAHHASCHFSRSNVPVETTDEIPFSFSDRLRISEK
method-summary: MALT1 protease assay, Assay 2 (1 nM MALT1, Ac-LRSR-AMC substrate)
Format: biochemical
experimental-conditions: 1 nM MALT1, 50 μM Ac-LRSR-AMC, 2 h pre-incubation, 8 hr incubation at RT
property-name: IC50

Below, 10 compounds whose answers are already recorded.
CC1(C)CC(C(=O)Nc2cnc(N3CCC3=O)c(Cl)c2)c2cnc3cc(F)nn3c21 (stereo not shown) : 100 to 1000 nM
CC1(C)CC(C(=O)Nc2cnc(-c3nnnn3C3COC3)c(Cl)c2)c2cnc3cc(Cl)nn3c21 (stereo not shown) : 100 to 1000 nM
CC1(C)CC(C(=O)Nc2cnc(OC(F)F)c(Cl)c2)c2cnn3cc(Cl)nc3c21 (single isomer, unassigned) : < 10 nM
CC1(C)CC(C(=O)Nc2cnc(OC3CC3)c(C#N)c2)c2cnc3cc(F)nn3c21 (single isomer, unassigned) : 10 to 100 nM
C[C@H](O)c1cnn(-c2ncc(NC(=O)[C@H]3CC4(CCC4)c4c3cnc3cc(Cl)nn43)cc2Cl)n1 (single isomer, unassigned) : 10 to 100 nM
CNC(=O)c1ncc(NC(=O)[C@@H]2CC(C)(C)c3c2cnc2cc(Cl)nn32)cc1C(F)(F)F (single isomer, unassigned) : ≥ 1000 nM
O=C(Nc1cnc(-n2nccn2)c(Cl)c1)C1CC2(COC2)c2c1cnc1cc(Cl)nn21 (stereo not shown) : ≥ 1000 nM
Cn1nnnc1-c1ncc(NC(=O)C2CC(C)(C)c3c2cnc2cc(Cl)nn32)cc1Cl (single isomer, unassigned) : < 10 nM
CC1(C)CC(C(=O)Nc2cnc(-n3nccn3)c(C#N)c2)c2cnc3cc(Cl)nn3c21 (single isomer, unassigned) : < 10 nM
CC1(C)CC(C(=O)Nc2cc(C(F)F)c(-c3c[nH]cn3)c(=O)[nH]2)c2cnc3cc(Cl)nn3c21 (stereo not shown) : 10 to 100 nM

stdin: Requested read-out: IC50. Entry: CC1(C)CC(C(=O)Nc2cnc(-n3nccn3)c(C#N)c2)c2cnn3cc(C(F)F)nc3c21 (single isomer, unassigned)
stdout: 10 to 100 nM

stdin: What does the data say about its IC50? Entry: CC1(C)CC(C(=O)Nc2cnc(-n3cc(C4COC4)nn3)c(Cl)c2)c2cnc3cc(Cl)nn3c21 (stereo not shown)
stdout: 100 to 1000 nM

stdin: Item under review: O=C(Nc1cnc(C(O)C(F)F)c(Cl)c1)C1CC2(CCC2)c2c1cnc1cc(F)nn21 (single isomer, unassigned) [Example 134] . Reported IC50?
stdout: ≥ 1000 nM
